- PROTOCOL_NOTES: Phase 1b study in female adults with cystitis, plasma PK
- Assay type: in vivo, human
- SETUP_CONDITIONS: female, human, plasma, oral, 450 mg, plasma, Day 1, PO450; read-out: AUC(0-12 hrs), Median
READOUT: AUC(0-t) (ng·h/mL)
Give bare numbers, in ng·h/mL.

query: Reported AUC(0-t), compound CN(C)c1cc(CNCC(C)(C)C)c(O)c2c1C[C@H]1C[C@H]3[C@H](N(C)C)C(O)=C(C(N)=O)C(=O)[C@@]3(O)C(O)=C1C2=O : ____
result: 6650

---

- PROTOCOL_NOTES: Phase 1b study in female adults with cystitis, plasma PK
- Assay type: in vivo, human
- SETUP_CONDITIONS: female, human, plasma, po, 450 mg, Day 5; 450 mg po (n = 10); mean; read-out: AUC0-24
READOUT: AUC(0-t) (ng·h/mL)
One number for each entry, in ng·h/mL.

query: Quick check: AUC(0-t) of CN(C)c1cc(CNCC(C)(C)C)c(O)c2c1C[C@H]1C[C@H]3[C@H](N(C)C)C(O)=C(C(N)=O)C(=O)[C@@]3(O)C(O)=C1C2=O [Compound 1] ?
result: 19800
